# Test system: Staphylococcus aureus X400
# assay setup: agar dilution
Reported MIC values follow for various compounds
endpoint name: MIC (µg/mL)

compound="CC(C)C[C@@H](N)C(=O)N[C@H]1C(=O)N[C@@H](CC(N)=O)C(=O)N[C@H]2C(=O)N[C@H]3C(=O)N[C@H](C(=O)N[C@H](C(=O)O)c4cc(O)cc(O)c4-c4cc3ccc4O)[C@H](O)c3ccc(c(Cl)c3)Oc3cc2cc(c3O[C@@H]2O[C@H](CO)[C@@H](O)[C@H](O)[C@H]2O)Oc2ccc(cc2Cl)[C@H]1O [Compound 12, Desvancosamine-A51568A]" test_value=2
compound="CN[C@H](CC(C)C)C(=O)N[C@H]1C(=O)N[C@@H](CC(N)=O)C(=O)N[C@H]2C(=O)N[C@H]3C(=O)N[C@H](C(=O)N[C@H](C(=O)O)c4cc(O)cc(O)c4-c4cc3ccc4O)[C@H](O)c3ccc(c(Cl)c3)Oc3cc2cc(c3O)Oc2ccc(cc2Cl)[C@H]1O [Compound 10, aglucovancomycin]" test_value=1
compound="CC(C)C[C@H](C(=O)N[C@H]1C(=O)N[C@@H](CC(N)=O)C(=O)N[C@H]2C(=O)N[C@H]3C(=O)N[C@H](C(=O)N[C@H](C(=O)[O-])c4cc(O)cc(O)c4-c4cc3ccc4O)[C@H](O)c3ccc(c(Cl)c3)Oc3cc2cc(c3O[C@@H]2O[C@H](CO)[C@@H](O)[C@H](O)[C@H]2O)Oc2ccc(cc2Cl)[C@H]1O)[N+](C)(C)C [Compound 5, M43C]" test_value=2
compound="CC(C)C[C@@H](N)C(=O)N[C@H]1C(=O)N[C@@H](CC(N)=O)C(=O)N[C@H]2C(=O)N[C@H]3C(=O)N[C@H](C(=O)N[C@H](C(=O)O)c4cc(O)cc(O)c4-c4cc3ccc4O)[C@H](O)c3ccc(c(Cl)c3)Oc3cc2cc(c3O)Oc2ccc(cc2Cl)[C@H]1O [Compound 9, Agluco-A51568A]" test_value=0.5
compound="CN[C@H](CC(C)C)C(=O)N[C@H]1C(=O)N[C@@H](CC(N)=O)C(=O)N[C@H]2C(=O)N[C@H]3C(=O)N[C@H](C(=O)N[C@H](C(=O)O)c4cc(O)cc(O)c4-c4cc3ccc4O)[C@H](O)c3ccc(c(Cl)c3)Oc3cc2cc(c3O[C@@H]2O[C@H](CO)[C@@H](O)[C@H](O)[C@H]2O)Oc2ccc(cc2Cl)[C@H]1O [Compound 13, Desvancosamine-Vancomycin]" test_value=8
compound="CC(C)C[C@H](C(=O)N[C@H]1C(=O)N[C@@H](CC(N)=O)C(=O)N[C@H]2C(=O)N[C@H]3C(=O)N[C@H](C(=O)N[C@H](C(=O)[O-])c4cc(O)cc(O)c4-c4cc3ccc4O)[C@H](O)c3ccc(c(Cl)c3)Oc3cc2cc(c3O)Oc2ccc(cc2Cl)[C@H]1O)[N+](C)(C)C [Compound 11, Agluco-M43A]" test_value=2
